- Tested on: Plasmodium falciparum
- Test details: GSK_TCMDC: Inhibition of Plasmodium falciparum Dd2 in whole red blood cells, using parasite LDH activity as an index of growth. Test compounds present at 2uM
- Type: functional
Reported endpoint: Inhibition

Data request: Which Inhibition is reported for this molecule? `N#Cc1ccc(N2CCN(Cc3cccc(-c4cccc(-c5nc6cc(F)ccc6[nH]5)c4)c3)CC2)nc1.O=C(O)C(F)(F)F`
Data returned: 52%

Data request: Which Inhibition is reported for this molecule? `CCOc1ccc(N2CCN(CCCCNC(=O)c3ccc(NC(=O)c4ccc(Cl)cc4)cc3)CC2)c(OCC)c1`
Data returned: 65%

Data request: Which Inhibition is reported for this molecule? `Cc1ccc2c(=O)c3cc(C)ccc3[nH]c2c1`
Data returned: 94%

Data request: Which Inhibition is reported for this molecule? `CN=C(NC)c1cccc(NC(=O)C=Cc2ccc(C=CC(=O)Nc3cccc(C(=NC)NC)c3)cc2)c1.Cl`
Data returned: 99%

Data request: Which Inhibition is reported for this molecule? `O=C(NCc1cccc(OC(F)(F)F)c1)c1cnc2c(c1)nc(-c1c[nH]c(-c3ccccc3)n1)n2CCc1c[nH]cn1`
Data returned: 47%

Data request: Which Inhibition is reported for this molecule? `O=C(NCc1cccs1)[C@H](Cc1ccccc1)Nc1ccnc(NCCc2ccccc2)n1.O=C(O)C(F)(F)F`
Data returned: 59%

Data request: Which Inhibition is reported for this molecule? `Cc1nc2ccc(F)cc2n1C1CCN(C(=O)Cc2ccc(F)c(F)c2)CC1`
Data returned: 99%

Data request: Which Inhibition is reported for this molecule? `COc1ccc2[nH]c(-c3ccccc3)cc(=NN=Cc3ccncc3)c2c1`
Data returned: 27%

Data request: Which Inhibition is reported for this molecule? `CCCCc1ccc(NC(=O)Nc2cccc(CCNCc3ccccc3)c2)cc1.O=C(O)C(F)(F)F`
Data returned: 13%

Data request: Which Inhibition is reported for this molecule? `COc1ccc(-c2cc(-c3nc4cc(CN)ccc4[nH]3)c(=O)n(C)c2)cc1OC`
Data returned: 56%

Data request: Which Inhibition is reported for this molecule? `Cc1cc(C)cc(CC(=O)N2CCC(n3c(C)nc4ccc(C)cc43)CC2)c1`
Data returned: 100%

Data request: Which Inhibition is reported for this molecule? `Cc1cc(OCCCN2CCCCC2)ccc1NC(=O)COc1ccc(Cl)cc1C(=O)c1cc(Cl)cc(C#N)c1`
Data returned: 16%

Data request: Which Inhibition is reported for this molecule? `COc1ccc(CCNCCCCCNCCCc2ccc(Cl)cc2)cc1OC.Cl`
Data returned: 2%

Data request: Which Inhibition is reported for this molecule? `CS(=O)(=O)CCNC(=O)c1ccc(-c2cc3c(Nc4ccc5c(cnn5Cc5ccccc5)c4)ncnc3cn2)o1.Cl`
Data returned: 46%

Data request: Which Inhibition is reported for this molecule? CCC(C)c1ccc(NC(=O)Nc2ccnc3ccccc23)cc1.Cl (stereo unspecified)
Data returned: 42%

Data request: Which Inhibition is reported for this molecule? `Cl.Oc1cc2ccccc2cc1CNC1CCCCC1`
Data returned: 89%

Data request: Which Inhibition is reported for this molecule? Nc1c(Cl)cc(C(O)CNCCCCCOCCc2ccc3ccccc3n2)cc1Cl.O=C(O)/C=C/C(=O)O (stereo unspecified)
Data returned: 97%

Data request: Which Inhibition is reported for this molecule? `CCNc1cc(C(=O)N[C@@H](Cc2ccccc2)[C@H](O)CNCc2cc(OC)cc(OC)c2)cc(N2CCCC2=O)c1.Cl`
Data returned: 75%

Data request: Which Inhibition is reported for this molecule? `Cl.N=C(Cc1ccc(Cl)cc1)NCCN1CCCCCC1`
Data returned: 94%

Data request: Which Inhibition is reported for this molecule? `CN(C)CCN(C)Cc1cccc(-c2ccc3c(Nc4cc(O)c(Cl)cc4F)ccnc3c2)c1`
Data returned: 70%

Data request: Which Inhibition is reported for this molecule? `O=C(NCc1cccs1)[C@H](Cc1ccccc1)Nc1ccnc(NCC2CCCCC2)n1.O=C(O)C(F)(F)F`
Data returned: 67%

Data request: Which Inhibition is reported for this molecule? `CCOCCCn1c(=N)c(C(=O)NCc2ccc(F)cc2)cc2c(=O)n3cccc(C)c3nc21`
Data returned: 40%

Data request: Which Inhibition is reported for this molecule? `CNc1ccc(CNCc2cccc(-c3ccc(-c4nc5cccc(C)c5[nH]4)cc3)c2)cc1.O=C(O)C(F)(F)F`
Data returned: 83%

Data request: Which Inhibition is reported for this molecule? `CN1CCCN(Cc2cccc(-c3ccc(NC(=O)c4cccc(Cl)c4)cc3)c2)CC1.O=C(O)C(F)(F)F`
Data returned: 10%

Data request: Which Inhibition is reported for this molecule? `COc1ccc(CCN(C)CCOc2ccc(NC(=O)c3cccc4cc5ccccc5nc34)cc2)cc1OC`
Data returned: 99%

Data request: Which Inhibition is reported for this molecule? `O=C(Cc1c[nH]cn1)Nc1cccc(-c2ccc(-c3nc4cc(F)ccc4[nH]3)cc2)c1`
Data returned: 84%

Data request: Which Inhibition is reported for this molecule? `N=C1NC(c2ccccc2)(c2ccccc2)C(=O)N1CC=Cc1ccccc1.O=C(O)C(F)(F)F`
Data returned: 70%

Data request: Which Inhibition is reported for this molecule? `COc1cccc2c(Nc3ccccc3C)nc(Nc3ccccc3C)nc12`
Data returned: 36%

Data request: Which Inhibition is reported for this molecule? `COc1cc(O)c2c(=O)c(OC)c(-c3cccc(Cl)c3OCC(=O)O)oc2c1OC`
Data returned: 0%

Data request: Which Inhibition is reported for this molecule? `Cc1ncc(CN2CCC(C(=O)Nc3ccc(-c4nc5ccccc5o4)cc3)CC2)s1`
Data returned: 92%

Data request: Which Inhibition is reported for this molecule? COC1(C)Oc2ccc3cccc([N+](=O)[O-])c3c2C1=O (stereo unspecified)
Data returned: 0%

* * *

Please provide measured Inhibition for the entries that follow.
- System: Plasmodium falciparum
- Test details: GSK_TCMDC: Inhibition of Plasmodium falciparum 3D7 in whole red blood cells, using parasite LDH activity as an index of growth. Test compounds present at 2uM
- Assay type: functional
Please give a number only; it is taken to be in %.

Data request: Which Inhibition is reported for this molecule? CN(Cc1cccc(O)c1)C1CCN(c2cc(NC(=O)c3ccc(F)cc3)ccn2)C1.O=C(O)C(F)(F)F (centres undefined)
Data returned: 91

Data request: Which Inhibition is reported for this molecule? `COc1ccc(N2CCN(CCCCNC(=O)c3ccc(NC(=O)c4ccc(OC(F)(F)F)cc4)cc3)CC2)c(OC)c1`
Data returned: 100

Data request: Which Inhibition is reported for this molecule? O=C(NC(c1ccccc1)c1ccccc1)C(c1cc2ccccc2o1)N1CCN(C(c2ccccc2)c2ccccc2)CC1 (centres undefined)
Data returned: 95

Data request: Which Inhibition is reported for this molecule? `CN1C(C)(C)CC(NC(=O)c2ccc(-c3nc4cc(Cl)ccc4[nH]3)cc2)CC1(C)C`
Data returned: 99

Data request: Which Inhibition is reported for this molecule? `Cc1cc(N[C@@H](Cc2ccccc2)C(=O)NCCCOC(C)C)nc(NCCc2ccc(F)cc2)n1.O=C(O)C(F)(F)F`
Data returned: 100

Data request: Which Inhibition is reported for this molecule? `Cc1cc(C)c(C(=O)Nc2ccc3nc(C)cc(N)c3c2)c(C)c1.Cl`
Data returned: 84

Data request: Which Inhibition is reported for this molecule? Br.CCC(C)Oc1ccc(CCCON2C(N)=NC(N)=NC2(C)C)cc1 (centres undefined)
Data returned: 92

Data request: Which Inhibition is reported for this molecule? `Cc1cc(N[C@@H](Cc2ccccc2)C(=O)NCc2cccc(F)c2)nc(NCC2CCCCC2)n1.O=C(O)C(F)(F)F`
Data returned: 100

Data request: Which Inhibition is reported for this molecule? `CC(=O)Nc1ccc(OCCN(Cc2ccccc2OC(F)(F)F)c2ccc(C(F)(F)F)c(C#N)c2)c(Cl)c1`
Data returned: 96

Data request: Which Inhibition is reported for this molecule? `CC(C)c1cn2c3c(cc(C(=O)N[C@@H](Cc4ccccc4)[C@H](O)CNC4CCCCC4)cc13)N(C)S(=O)(=O)CC2.O=CO`
Data returned: 98

Data request: Which Inhibition is reported for this molecule? CCCCOc1ccc(C(=O)C(CCC(CNC(C)(C)C)C(=O)c2ccc(OCCCC)cc2)CNC(C)(C)C)cc1.Cl (centres undefined)
Data returned: 94

Data request: Which Inhibition is reported for this molecule? Cc1cccc2nc(-c3cccc(-c4cccc(NC(=O)C5CC(=O)Nc6ccccc65)c4)c3)[nH]c12 (centres undefined)
Data returned: 85

Data request: Which Inhibition is reported for this molecule? c1csc(-c2ccc3c(c2)CC(NCc2c[nH]c4cnccc24)C3)c1 (centres undefined)
Data returned: 100

Data request: Which Inhibition is reported for this molecule? `O=C(Nc1cccc(CN2CCN(C(=O)c3cccc(Cl)c3)CC2)c1)c1cccs1.O=C(O)C(F)(F)F`
Data returned: 94

Data request: Which Inhibition is reported for this molecule? `Cn1c(Nc2cc(C(C)(C)C)on2)nc2cc(Nc3ccnc(Nc4cccc(S(=O)(=O)N5CCOCC5)c4)n3)ccc21`
Data returned: 100

Data request: Which Inhibition is reported for this molecule? `COc1cc(Nc2ccnc3ccc(C(F)(F)F)cc23)cc(OC)c1OC`
Data returned: 100

Data request: Which Inhibition is reported for this molecule? O=C(O)C(F)(F)F.OC1CCCN(Cc2ccc(-c3ccc(-c4nc5cc(F)ccc5[nH]4)cc3)cc2)C1 (centres undefined)
Data returned: 100

Data request: Which Inhibition is reported for this molecule? `CS(=O)(=O)NCCCNCc1cccc(-c2ccc(-c3nc4cc(C(F)(F)F)ccc4[nH]3)cc2)c1.O=C(O)C(F)(F)F`
Data returned: 100

Data request: Which Inhibition is reported for this molecule? Cc1ccccc1C1CCN(C2CCC(NC(=O)c3ccc(-c4cccc(C(F)(F)F)c4)o3)CC2)CC1 (centres undefined)
Data returned: 99
